- Tested on: carrageenan-induced rat paw oedema
- Method Summary: Carrageenan-induced rat paw oedema test
- Assay type: in vivo
- Run Parameters: 4 h after carrageenan, compounds and celecoxib 50 mg/kg, ibuprofen and indomethacin 20 mg/kg, mean ± SEM, n = 5

Molecule | Readout Units | Mean oedema thickness 4h
Cc1ccc(-c2cc(C(F)(F)F)nn2-c2ccc(S(N)(=O)=O)cc2)cc1 [Celecoxib, reference compound] | mm | 1.39
CC(C)Cc1ccc(C(C)C(=O)O)cc1 (centres unmarked) [Ibuprofen, reference compound] | mm | 1.23
COc1ccc2c(c1)c(CC(=O)O)c(C)n2C(=O)c1ccc(Cl)cc1 [Indomethacin, reference compound] | mm | 2.02
CN1c2ccccc2C(=O)N(NC(=O)Cc2c[nH]c3ccccc23)C1c1ccc(Cl)cc1 (centres unmarked) [4a] | mm | 2.04
CN1c2ccccc2C(=O)N(NC(=O)Cc2c[nH]c3ccccc23)C1c1ccc([N+](=O)[O-])cc1 (centres unmarked) [4b] | mm | 1.14
NNC(=O)CSc1nc2ccccc2c(=O)n1NC(=O)Cc1ccccc1 [13b] | mm | 1.97
CC(C)Cc1ccc(C(C)C(=O)NN2C(=O)c3ccccc3N(C)C2c2ccc([N+](=O)[O-])cc2)cc1 (centres unmarked) [7c] | mm | 1.62
O=C(CSc1nc2ccccc2c(=O)n1NC(=O)Cc1ccccc1)NNC(=O)c1ccccc1 [14c] | mm | 2.37

====

- System: carrageenan-induced rat paw oedema
- Method Summary: Carrageenan-induced rat paw oedema test
- Assay type: in vivo
- Run Parameters: 5 h after carrageenan, compounds and celecoxib 50 mg/kg, ibuprofen and indomethacin 20 mg/kg, mean ± SEM, n = 5

Compound | Test System | Mean oedema thickness 5h (mm)
CN1c2ccccc2C(=O)N(NC(=O)Cc2c[nH]c3ccccc23)C1c1ccc([N+](=O)[O-])cc1 (centres unmarked) [4b] | carrageenan-induced rat paw oedema | 1.42
O=C(CSc1nc2ccccc2c(=O)n1NC(=O)Cc1ccccc1)NNC(=O)c1ccccc1 [14c] | carrageenan-induced rat paw oedema | 2.34
CC(C)Cc1ccc(C(C)C(=O)NN2C(=O)c3ccccc3N(C)C2c2ccc([N+](=O)[O-])cc2)cc1 (centres unmarked) [7c] | carrageenan-induced rat paw oedema | 1.55
CC(C)Cc1ccc(C(C)C(=O)O)cc1 (centres unmarked) [Ibuprofen, reference compound] | carrageenan-induced rat paw oedema | 1.36
NNC(=O)CSc1nc2ccccc2c(=O)n1NC(=O)Cc1ccccc1 [13b] | carrageenan-induced rat paw oedema | 1.61
CN1c2ccccc2C(=O)N(NC(=O)Cc2c[nH]c3ccccc23)C1c1ccc(Cl)cc1 (centres unmarked) [4a] | carrageenan-induced rat paw oedema | 1.39
COc1ccc2c(c1)c(CC(=O)O)c(C)n2C(=O)c1ccc(Cl)cc1 [Indomethacin, reference compound] | carrageenan-induced rat paw oedema | 1.87
Cc1ccc(-c2cc(C(F)(F)F)nn2-c2ccc(S(N)(=O)=O)cc2)cc1 [Celecoxib, reference compound] | carrageenan-induced rat paw oedema | 1.19

====

- System: stomach ulceration in rats
- Method Summary: Gastric acute ulcerogenic activity
- Run Parameters: rat, n = 5

Molecule | Readout Units | Lesion Incidence (%)
CC(C)Cc1ccc(C(C)C(=O)NN2C(=O)c3ccccc3N(C)C2c2ccc([N+](=O)[O-])cc2)cc1 (centres unmarked) [7c] | % | 60
CN1c2ccccc2C(=O)N(NC(=O)Cc2c[nH]c3ccccc23)C1c1ccc([N+](=O)[O-])cc1 (centres unmarked) [4b] | % | 20
CN1c2ccccc2C(=O)N(NC(=O)Cc2c[nH]c3ccccc23)C1c1ccc(Cl)cc1 (centres unmarked) [4a] | % | 60
NNC(=O)CSc1nc2ccccc2c(=O)n1NC(=O)Cc1ccccc1 [13b] | % | 40
O=C(CSc1nc2ccccc2c(=O)n1NC(=O)Cc1ccccc1)NNC(=O)c1ccccc1 [14c] | % | 40
